# study_system: X-box-binding protein 1 (Homo sapiens) (UniProt P17861)
# Sequence (P17861 whole entry, looked up): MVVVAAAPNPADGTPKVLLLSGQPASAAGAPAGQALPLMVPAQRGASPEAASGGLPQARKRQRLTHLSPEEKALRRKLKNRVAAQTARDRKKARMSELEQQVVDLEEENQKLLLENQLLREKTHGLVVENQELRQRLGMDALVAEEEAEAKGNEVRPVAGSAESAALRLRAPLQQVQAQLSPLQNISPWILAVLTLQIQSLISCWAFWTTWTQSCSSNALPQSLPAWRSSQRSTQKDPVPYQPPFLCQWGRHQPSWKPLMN
# assay_protocol: ATG_Xbp1_CIS: Attagene CIS-FACTORIAL HepG2 Assay for human X-box Binding Protein 1 (XBP1) (AID 2282972)
# assay_context: HepG2 XBP1 cis-element reporter, Attagene multiplex; actives raise or lower the signal
Activity calls are given as the source filed them. Rule for the calls: active = hit-call score of the fitted dose curve at least 0.9, where 1 is the maximum; inactive = score below 0.9.
Write down one outcome, taken from active, inactive

Sample answers from the record:
compound	qualitative_label
O=c1ssc(Cl)c1Cl	active
COCCOCCO	inactive
CN(C)C(=O)Cl	inactive
N#C/C=C/c1ccccc1	inactive
c1ccc2c(c1)Nc1ccccc1S2	inactive

(Q) What classification did c1ccc2c(c1)sc1ccccc12 end up with in this test?
(A) inactive

(Q) Which outcome was entered for the compound CC(C)Nc1ccc(Nc2ccccc2)cc1 in this test?
(A) inactive

---

# Read-out: Monocyte Chemoattractant Protein-1 (MCP1), CCL2 (gene 6347)
# assay_protocol: BSK_3C_MCP1: BioMAP Diversity Plus: 3C Assay for Monocyte Chemoattractant Protein-1 (MCP1) Biomarker Activity (AID 2283017)
# assay_context: primary human endothelial cells (HUVEC); actives raise or lower the signal
The source made the active and inactive calls. How the source made its calls: active means hit-call score of the fitted dose curve at least 0.9, where 1 is the maximum; inactive means score below 0.9.
Choose the fitting class; nothing outside Yes = active, No = inactive is accepted.

Solved entries (count: 5):
compound	qualitative_label
O=S(=O)(F)C(F)(F)C(F)(F)C(F)(F)C(F)(F)C(F)(F)C(F)(F)C(F)(F)C(F)(F)F	No
OCC(F)(F)OC(F)(F)C(F)(F)OC(F)(F)CO	No
ClC(Cl)(Cl)c1ccccc1	No
O=S1(=O)OCC2C(CO1)C1(Cl)C(Cl)=C(Cl)C2(Cl)C1(Cl)Cl (configuration not stated)	No
c1ccc2c(c1)Nc1ccccc1S2	No

(Q) What did the test return for CCCN(CCC)c1c([N+](=O)[O-])cc(C(C)C)cc1[N+](=O)[O-] ?
(A) Yes

(Q) Returns: the outcome recorded for [N-]=[N+]=[N-] in this assay.
(A) No

(Q) Given CCCCC(CC)COC(=O)c1c(Br)c(Br)c(Br)c(Br)c1C(=O)OCC(CC)CCCC (configuration not stated) , state the outcome it received in this test.
(A) No

---

# study_system: Androgen Receptor/SRC-1 Co-activator, AR (gene 367) (UniProt P10275)
# Sequence (P10275 whole entry, looked up): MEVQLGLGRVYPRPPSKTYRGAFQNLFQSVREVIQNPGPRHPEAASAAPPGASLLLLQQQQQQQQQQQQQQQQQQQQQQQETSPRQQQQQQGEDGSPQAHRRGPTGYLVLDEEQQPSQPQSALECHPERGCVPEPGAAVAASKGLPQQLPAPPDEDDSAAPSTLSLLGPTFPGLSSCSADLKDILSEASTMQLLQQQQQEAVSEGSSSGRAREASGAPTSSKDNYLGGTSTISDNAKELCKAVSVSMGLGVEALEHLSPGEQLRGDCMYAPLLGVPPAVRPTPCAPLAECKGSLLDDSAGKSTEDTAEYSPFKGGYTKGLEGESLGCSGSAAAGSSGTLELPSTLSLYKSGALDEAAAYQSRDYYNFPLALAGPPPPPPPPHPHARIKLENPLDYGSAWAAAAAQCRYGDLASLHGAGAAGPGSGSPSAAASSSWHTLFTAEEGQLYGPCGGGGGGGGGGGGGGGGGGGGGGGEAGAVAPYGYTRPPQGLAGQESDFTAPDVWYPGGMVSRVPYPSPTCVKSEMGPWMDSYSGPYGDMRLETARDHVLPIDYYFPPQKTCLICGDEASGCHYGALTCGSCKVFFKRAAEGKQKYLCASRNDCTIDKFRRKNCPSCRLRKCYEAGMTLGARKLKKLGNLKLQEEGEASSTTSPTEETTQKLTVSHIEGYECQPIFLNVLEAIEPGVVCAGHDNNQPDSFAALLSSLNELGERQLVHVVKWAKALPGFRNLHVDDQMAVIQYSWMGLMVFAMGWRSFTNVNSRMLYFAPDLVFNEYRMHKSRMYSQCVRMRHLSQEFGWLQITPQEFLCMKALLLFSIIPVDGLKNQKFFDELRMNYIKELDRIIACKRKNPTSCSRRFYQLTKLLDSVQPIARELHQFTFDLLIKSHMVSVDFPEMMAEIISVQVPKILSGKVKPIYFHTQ
# assay_protocol: OT_AR_ARSRC1_0480: Odyssey Thera (OT) 8-hour HEK293T Protein-Complementation Assay for Androgen Receptor/SRC-1 Co-activator (AID 2283354);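 note: hits raise the complementation signal above DMSO so AC50 marks enhancers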
# Procedure: OT_AR_ARSRC1_0480 is a cell-based, single-readout assay that uses HEK293T, a human kidney cell line, with measurements taken at 8 hours after chemical dosing in a 384-well plate.OT_AR_ARSRC1_0480 is one of one assay component(s) measured or calculated from the OT_AR_ARSRC1_0480 assay. […] This assay endpoint, OT_AR_ARSRC1_0480, was analyzed in the positive analysis fitting direction relative to DMSO as the negative control and baseline of activity. […]
Results filed as inconclusive are left out. Active and inactive are the calls of the source. Rule for the calls: active = hit-call score of the fitted dose curve at least 0.9, where 1 is the maximum; inconclusive = response in the unintended direction; inactive = score below 0.9.
Choose the fitting class; nothing outside 1 (yes) (active), 0 (no) (inactive) is accepted.

Illustrative cases are given below, each with its answer.
compound	qualitative_label
CCNc1nc(Cl)nc(NC(C)(C)C)n1	0 (no)
ClC1=C(Cl)C2(Cl)C3C(Cl)C(Cl)CC3C1(Cl)C2(Cl)Cl (stereo not given)	1 (yes)
CC1(C)CN=C(NN=C(/C=C/c2ccc(C(F)(F)F)cc2)/C=C/c2ccc(C(F)(F)F)cc2)NC1	1 (yes)
O=P(OCC(Br)CBr)(OCC(Br)CBr)OCC(Br)CBr (stereo not given)	0 (no)

Now look at this entry.
(Q) Record request — test call for CO/N=C(/C(=O)OC)c1ccccc1COc1ccccc1C
(A) 0 (no)

---

# assay_protocol: APR_HepG2_p53Act_72hr: Apredica 72-hour HepG2 Assay for p53 Activation (AID 2282923);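 note: average cellular p53 protein immunofluorescence intensity in HepG2 cells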
# assay_context: high-content imaging, actives raise or lower the signal
Activity calls are given as the source filed them. The calls were made as follows: active = hit-call score of the fitted dose curve at least 0.9, where 1 is the maximum; inactive = score below 0.9.
Please reply with one of these outcomes: active, inactive

Field: example entries. Status: answers known.
compound	qualitative_label
CCCCN(CCCC)N=O	inactive
O=P(Oc1ccccc1)(Oc1ccccc1)Oc1ccccc1	active
CCOC(=O)c1ccccc1C(=O)OCC	inactive

(Q) Lab log entry: Nc1ccc2ccccc2c1 — outcome as called in the assay?
(A) inactive

(Q) Tell me the recorded outcome of this test for CC(C)(C)c1ccc(O)cc1 .
(A) inactive

(Q) GET /call?item= CCCN(CCC)c1c([N+](=O)[O-])cc(C(C)C)cc1[N+](=O)[O-] returns the recorded outcome of this test.
(A) active

(Q) Check the results log: what was the call for ClC(Cl)(Cl)c1ccccc1 ?
(A) inactive

(Q) Hi team, can someone confirm the assay call for c1nc[nH]n1 ?
(A) inactive

---

# assay_protocol: ATG_TAL_CIS: Attagene CIS-FACTORIAL HepG2 Assay for human TAL Basal Promoter (AID 2282966);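 note: background control endpoint measuring basal TAL promoter reporter mRNA not a specific factor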
# assay_context: HepG2 Attagene cis-factorial TAL promoter reporter; actives raise or lower the signal
Calls of active or inactive are those of the source. How the source made its calls: active means hit-call score of the fitted dose curve at least 0.9, where 1 is the maximum; inactive means score below 0.9.
measured_quantity: outcome

Observe how each entry below is paired with its result.
molecule	value_observed
ClC1=C(Cl)C2(Cl)C3C(Cl)C(Cl)CC3C1(Cl)C2(Cl)Cl (stereo not given)	inactive
CC(=O)c1ccc(-c2ccccc2)cc1	inactive
CC(C)CBr	inactive
CCOP(=O)(O)C(N)=O	inactive
CCOP(=S)(Oc1ccc([N+](=O)[O-])cc1)c1ccccc1 (stereo not given)	inactive

API: the following record is the query input.
(Q) Check the records and state outcome for CCCCc1ccccc1
(A) inactive

---

# Read-out: Interleukin-8 (IL8), CXCL8 (gene 3576)
# assay_protocol: BSK_KF3CT_IL8: BioMAP Diversity Plus: KF3CT Assay for Interleukin-8 (IL8) Biomarker Activity (AID 2284254)
# assay_context: primary human keratinocytes with fibroblasts
Calls of active or inactive are those of the source. How the source made its calls: active means hit-call score of the fitted dose curve at least 0.9, where 1 is the maximum; inactive means score below 0.9.
measured_quantity: outcome

Examples with their reported outcome follow.
compound	outcome
O=C(O)C(F)(F)C(F)(F)C(=O)O	inactive
O=C(O)C(F)(F)OC(F)(F)C(F)(F)OC(F)(F)F	inactive
OCC(F)(F)OC(F)(F)C(F)(F)OC(F)(F)CO	inactive
O=C(O)C=CC(F)(C(F)(F)F)C(F)(F)F	inactive
CC(O)C(F)(F)C(F)(F)F (stereo not given)	inactive
O=C(O)C(F)(F)OC(F)(F)C(F)(F)OC(F)(F)C(=O)O	inactive
O=C(O)C(F)(OC(F)(F)C(F)(F)C(F)(F)F)C(F)(F)F (stereo not given)	inactive
COC(=O)C(F)(F)C(F)(F)OC(F)(C(F)(F)F)C(F)(F)OC(F)=C(F)F (stereo not given)	inactive
OCC(F)(F)OC(F)(F)C(F)(F)OC(F)(F)C(F)(F)OC(F)(F)CO	inactive

Shifting focus to the compound that follows.
(Q) Return value of outcome for input O=S(=O)(F)C(F)(F)C(F)(F)C(F)(F)C(F)(F)C(F)(F)C(F)(F)C(F)(F)C(F)(F)F , no commentary.
(A) inactive

---

# Read-out: CD69, CD69 (gene 969)
# assay_protocol: BSK_SAg_CD69: BioMAP Diversity Plus: SAg Assay for CD69 Biomarker Activity (AID 2283089)
# assay_context: primary human HUVEC with PBMC; actives raise or lower the signal
Calls of active or inactive are those of the source. The calls were made as follows: active = hit-call score of the fitted dose curve at least 0.9, where 1 is the maximum; inactive = score below 0.9.
Write down one outcome, taken from active, inactive

# count of solved cases: 3
molecule	qualitative_label
Cc1cccc(N)c1	inactive
O=S1(=O)OCC2C(CO1)C1(Cl)C(Cl)=C(Cl)C2(Cl)C1(Cl)Cl (stereo not drawn)	inactive
CCOP(=S)(OCC)SCSCC	inactive

(Q) Which outcome was entered for the molecule CCCCC(CC)COC(=O)c1c(Br)c(Br)c(Br)c(Br)c1C(=O)OCC(CC)CCCC (stereo not drawn) in this test?
(A) inactive

(Q) Kindly provide the recorded test outcome for the following molecule: Nc1ccc(Cl)cc1
(A) inactive

---

# study_system: Estrogen receptor (Homo sapiens) (UniProt P03372)
# Sequence (P03372 whole entry, looked up): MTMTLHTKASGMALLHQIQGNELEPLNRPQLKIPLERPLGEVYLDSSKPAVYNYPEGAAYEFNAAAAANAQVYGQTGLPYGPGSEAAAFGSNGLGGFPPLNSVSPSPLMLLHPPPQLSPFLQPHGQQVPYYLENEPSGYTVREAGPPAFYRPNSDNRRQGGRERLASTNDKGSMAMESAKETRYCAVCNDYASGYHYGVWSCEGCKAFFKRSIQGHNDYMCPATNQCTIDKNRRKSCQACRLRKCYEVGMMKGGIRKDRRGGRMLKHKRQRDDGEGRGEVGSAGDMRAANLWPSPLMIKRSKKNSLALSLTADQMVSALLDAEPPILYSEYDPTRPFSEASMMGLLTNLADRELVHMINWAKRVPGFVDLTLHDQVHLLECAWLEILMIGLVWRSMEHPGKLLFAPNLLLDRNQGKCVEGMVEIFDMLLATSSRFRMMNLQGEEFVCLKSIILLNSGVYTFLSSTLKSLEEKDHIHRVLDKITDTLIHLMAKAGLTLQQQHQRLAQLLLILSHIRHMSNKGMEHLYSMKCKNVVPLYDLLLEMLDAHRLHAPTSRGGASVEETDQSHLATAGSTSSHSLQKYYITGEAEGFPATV
# assay_protocol: OT_ERa_GFPERaERE_0480: Odyssey Thera (OT) 8-hour HeLa Transcription Induction Assay for Estrogen Receptor (AID 2283381)
Active and inactive are the calls of the source. How the source made its calls: active means hit-call score of the fitted dose curve at least 0.9, where 1 is the maximum; inactive means score below 0.9.
I would appreciate it if you answered using one of these outcomes: active, inactive

Recorded results for 2 compounds are shown here.
compound	qualitative_label
c1ccc2c(c1)Nc1ccccc1S2	inactive
ClC1=C(Cl)C2(Cl)C3C(Cl)C(Cl)CC3C1(Cl)C2(Cl)Cl (centres undefined)	inactive

(Q) Recorded call for Nc1cc2c3c(c1)C(c1ccccc1)=N[C@@H](NC(=O)c1cccnc1)C(=O)N3CC2 ?
(A) inactive

(Q) Dear colleague, could you share the recorded outcome for O=C(O)C1C(C(=O)O)C2(Cl)C(Cl)=C(Cl)C1(Cl)C2(Cl)Cl (centres undefined) when you have a moment?
(A) inactive

(Q) What was the test verdict on CSC(C)(C)C=NO ?
(A) inactive

(Q) Field: outcome | Entry: CCCCC(CC)COC(=O)c1c(Br)c(Br)c(Br)c(Br)c1C(=O)OCC(CC)CCCC (centres undefined)
(A) inactive
